experimental system: Virion infectivity factor (Human immunodeficiency virus type 1 group M subtype B (isolate BH10)) + Virion infectivity factor (Human immunodeficiency virus type 1 group M subtype B (isolate BRU/LAI)) + Virion infectivity factor (Human immunodeficiency virus type 1 group M subtype B (isolate PCV12)) + Virion infectivity factor (Human immunodeficiency virus type 1 group M subtype B (isolate HXB2)) + DNA dC->dU-editing enzyme APOBEC-3G (Homo sapiens) (UniProt P69720+P69721+P69722+P69723+Q9HC16)
measurement notes: inhibitors of Vif binding to APOBEC3G peptide, primary screen, biochemical, TR-FRET, GST-Vif 1-94, biotin-A3G peptide, dose response retest (AID 1117319);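 further: Vif residues 1-94 fused to GST binding biotinylated APOBEC3G peptide 110-148; 0% = full assay without inhibitor and 100% = GST in place of GST-Vif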
measurement setup: hits give high values
The whole screen tested about 260,000 compounds, of which about 1,500 (0.58%) were called active. About 5% were inconclusive and are not listed. The list is a sample of the results. Measured potencies and affinities stand elsewhere.
Returns one of yes (1) or no (0); yes (1) when inhibition is >= 10%.

>  <molecule>
O=C1C2C3C=CC(C3)C2C(=O)N1c1ccccc1 (stereo not given)

>  <assigned label>
yes (1)

$$$$
>  <molecule>
COCCn1nnnc1C(c1cc2cc(C)ccc2[nH]c1=O)N1CCc2ccccc21 (stereo not given)

>  <assigned label>
yes (1)

$$$$
>  <molecule>
COc1ccc(C(=O)/C=C2/C(=O)Nc3ccccc32)cc1

>  <assigned label>
yes (1)

$$$$
>  <molecule>
O=C(COC(=O)c1cc(=O)[nH]c2ccccc12)Nc1nccs1

>  <assigned label>
no (0)

$$$$
>  <molecule>
COc1ccc(-c2oc3ncnc(N)c3c2-c2ccccc2)cc1

>  <assigned label>
no (0)

$$$$
>  <molecule>
COc1cnc(-c2ccccn2)[nH]c1=O

>  <assigned label>
no (0)

$$$$
>  <molecule>
Cc1ccc2c(c1)CC1(CN2C)C(=O)OC(C)(C)OC1=O

>  <assigned label>
yes (1)

$$$$
>  <molecule>
CC1(NC(=O)CC[N+](C)(C)CCO)CS(=O)(=O)CC1S(=O)(=O)[O-] (stereo not given)

>  <assigned label>
yes (1)

$$$$
>  <molecule>
CCN(CC)c1ccc(C2Nc3cccc4cccc(c34)N2)c(O)c1

>  <assigned label>
no (0)

$$$$
>  <molecule>
Cc1cc2c(Nc3ccc(O)cc3)ncnc2s1

>  <assigned label>
no (0)

$$$$
